system-under-test: T1, huZIP12-ECD-GST (human, UniProt Q504Y0 24-202)
T1 construct: also called hZIP12-ECD-GST; human ZIP12-ECD-GST; not shown: glutathione S-transferase (GST) tag
T1 sequence (Q504Y0 24-202): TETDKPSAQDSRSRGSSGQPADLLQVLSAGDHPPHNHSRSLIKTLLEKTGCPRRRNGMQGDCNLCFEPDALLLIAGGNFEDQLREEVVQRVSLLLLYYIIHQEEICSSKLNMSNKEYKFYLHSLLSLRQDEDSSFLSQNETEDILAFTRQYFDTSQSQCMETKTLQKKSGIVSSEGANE
method-description: SPR single cycle kinetics (Biacore): mAb captured on protein A, huZIP12-ECD-GST injected at 2.34-600 nM, extended dissociation
Reported koff by item:
Write down the numeric answer in s⁻¹ and omit the unit.

{"columns": ["binder", "display-unit", "reported-value"],
 "data": [
  ["H3_W99H_L2 (antibody, V domains shown, Fc null human IgG1 / human kappa) VH: QVQLVESGGGVVQPGRSLRLSCAASGFTFSDYGMHWVRQAPGKGLEWVAYISSGGTTIYYADTVKGRFTISRDNSKNTLYLQMNSLRAEDTAVYYCARHTNLYAMDYWGQGTTVTVSS VL: DIVLTQSPDSLAVSLGERATINCRASKSVSTSGYSYMHWYQQKPGQPPKFLIYLASNKESGVPDRFSGSGSGTDFTLTISSLQAEDVAVYYCQHSREVPYTFGGGTKVEIKR", "s⁻¹", "3.16e-05"]
]}

Task: Fill in: koff of H2_T57H_VL-par (antibody, V domains shown, Fc null human IgG1 / human kappa) VH: QVQLVESGGGVVQPGRSLRLSCAASGFTFSDYGMHWVRQAPGKGLEWVAYISSGGTHIYYADTVKGRFTISRDNSKNTLYLQMNSLRAEDTAVYYCARWTNLYAMDYWGQGTTVTVSS VL: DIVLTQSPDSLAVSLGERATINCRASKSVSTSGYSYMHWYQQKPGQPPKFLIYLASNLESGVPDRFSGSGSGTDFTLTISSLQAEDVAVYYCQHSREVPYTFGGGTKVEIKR is ___
Output: 3.3e-05

Task: Fill in: koff of H2_T63Y_VL-par (antibody, V domains shown, Fc null human IgG1 / human kappa) VH: QVQLVESGGGVVQPGRSLRLSCAASGFTFSDYGMHWVRQAPGKGLEWVAYISSGGTTIYYADYVKGRFTISRDNSKNTLYLQMNSLRAEDTAVYYCARWTNLYAMDYWGQGTTVTVSS VL: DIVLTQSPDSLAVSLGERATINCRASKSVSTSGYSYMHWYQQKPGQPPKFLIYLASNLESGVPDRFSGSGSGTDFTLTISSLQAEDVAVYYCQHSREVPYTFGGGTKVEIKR is ___
Output: 2.51e-05

Task: Fill in: koff of H3_W99H_VL-par (antibody, V domains shown, Fc null human IgG1 / human kappa) VH: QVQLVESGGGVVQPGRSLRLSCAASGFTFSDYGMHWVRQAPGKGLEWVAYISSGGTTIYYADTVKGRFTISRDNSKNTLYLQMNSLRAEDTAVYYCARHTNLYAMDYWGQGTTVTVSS VL: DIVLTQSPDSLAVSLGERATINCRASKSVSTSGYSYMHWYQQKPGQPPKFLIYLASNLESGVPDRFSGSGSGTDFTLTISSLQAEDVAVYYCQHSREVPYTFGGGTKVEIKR is ___
Output: 3.29e-05

Task: Fill in: koff of H2_T63Y_L1 (antibody, V domains shown, Fc null human IgG1 / human kappa) VH: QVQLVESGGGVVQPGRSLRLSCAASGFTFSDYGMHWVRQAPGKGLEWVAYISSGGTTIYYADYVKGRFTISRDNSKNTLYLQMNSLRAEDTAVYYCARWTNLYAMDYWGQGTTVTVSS VL: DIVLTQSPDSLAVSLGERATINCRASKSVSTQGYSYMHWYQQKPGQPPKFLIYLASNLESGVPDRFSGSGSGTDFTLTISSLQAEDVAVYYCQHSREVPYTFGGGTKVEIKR is ___
Output: 3.68e-05

Task: Fill in: koff of 51B12 parent (antibody, V domains shown, Fc null human IgG1 / human kappa) VH: QVQLVESGGGVVQPGRSLRLSCAASGFTFSDYGMHWVRQAPGKGLEWVAYISSGGTTIYYADTVKGRFTISRDNSKNTLYLQMNSLRAEDTAVYYCARWTNLYAMDYWGQGTTVTVSS VL: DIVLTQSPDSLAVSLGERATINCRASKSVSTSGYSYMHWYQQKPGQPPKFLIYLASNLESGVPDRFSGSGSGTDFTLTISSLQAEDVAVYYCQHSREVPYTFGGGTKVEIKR is ___
Output: 3e-05

Task: Fill in: koff of H2_G66Q_L2 (antibody, V domains shown, Fc null human IgG1 / human kappa) VH: QVQLVESGGGVVQPGRSLRLSCAASGFTFSDYGMHWVRQAPGKGLEWVAYISSGGTTIYYADTVKQRFTISRDNSKNTLYLQMNSLRAEDTAVYYCARWTNLYAMDYWGQGTTVTVSS VL: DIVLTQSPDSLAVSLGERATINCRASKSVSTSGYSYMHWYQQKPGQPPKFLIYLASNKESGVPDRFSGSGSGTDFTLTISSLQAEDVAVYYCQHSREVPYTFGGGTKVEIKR is ___
Output: 3.59e-05

Task: Fill in: koff of H2_Y60K_VL-par (antibody, V domains shown, Fc null human IgG1 / human kappa) VH: QVQLVESGGGVVQPGRSLRLSCAASGFTFSDYGMHWVRQAPGKGLEWVAYISSGGTTIYKADTVKGRFTISRDNSKNTLYLQMNSLRAEDTAVYYCARWTNLYAMDYWGQGTTVTVSS VL: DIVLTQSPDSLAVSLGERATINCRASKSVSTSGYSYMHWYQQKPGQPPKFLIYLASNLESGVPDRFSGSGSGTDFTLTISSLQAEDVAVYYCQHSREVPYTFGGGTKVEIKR is ___
Output: 3.26e-05

Task: Fill in: koff of H2_Y60K_L1 (antibody, V domains shown, Fc null human IgG1 / human kappa) VH: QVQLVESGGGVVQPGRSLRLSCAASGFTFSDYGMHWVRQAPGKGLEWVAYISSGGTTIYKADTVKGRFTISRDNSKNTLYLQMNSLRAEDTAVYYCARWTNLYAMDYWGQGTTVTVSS VL: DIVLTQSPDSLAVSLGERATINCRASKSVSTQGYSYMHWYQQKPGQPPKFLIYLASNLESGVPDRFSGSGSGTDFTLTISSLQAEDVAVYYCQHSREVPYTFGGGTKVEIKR is ___
Output: 2.25e-05

Task: Fill in: koff of H2_T56H_VL-par (antibody, V domains shown, Fc null human IgG1 / human kappa) VH: QVQLVESGGGVVQPGRSLRLSCAASGFTFSDYGMHWVRQAPGKGLEWVAYISSGGHTIYYADTVKGRFTISRDNSKNTLYLQMNSLRAEDTAVYYCARWTNLYAMDYWGQGTTVTVSS VL: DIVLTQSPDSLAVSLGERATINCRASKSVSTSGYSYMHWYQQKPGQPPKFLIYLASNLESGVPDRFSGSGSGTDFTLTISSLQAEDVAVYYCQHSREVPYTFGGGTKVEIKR is ___
Output: 1.51e-05
